# Test system: SK-MEL-5 melanoma
# EXPERIMENTAL_PROTOCOL: NCI tumour cell line growth inhibition, 48 h
PARAMETER: GI50

Below, each entry is followed by its recorded GI50 result.
{"columns": ["COMPOUND", "GI50"],
 "data": [
  ["COc1ccc(O)c(C(=O)c2ccc(C(=O)N[C@H]3CCCNC[C@@H]3NC(=O)c3ccncc3)cc2)c1F", "5500 nM"],
  ["COc1cc(OC)c(/C=C/c2c3ccccc3cc[n+]2C)c(OC)c1", "642 nM"],
  ["CC(C)(S)C(N)C(=O)O (centres undefined)", "895000 nM"],
  ["COc1ccc(-n2c(C)cc(-c3ccccc3)c2C)cc1", "1770 nM"],
  ["CCN1C(=O)N(CC)C2C1NN=c1s/c(=C3\\C(=O)N(CC(C)(C)C)c4ccccc43)c(=O)n12 (centres undefined)", "2110 nM"]
]}

Notebook: `NC(=O)c1cc(S(=O)(=O)Nc2nnc(-c3ccccc3)c(-c3ccccc3)n2)c(SCc2ccccc2)cc1Cl` , GI50 read as > 79600 nM

Entry `O=C1NC(=NCCc2cccc(Cl)c2)S/C1=C\c1ccc2ncccc2c1` , GI50 reported as > 25000 nM

The reported GI50 of the compound `O[C@H](c1cc(C(F)(F)F)nc2c(C(F)(F)F)cccc12)[C@@H]1CCCCN1` was 3640 nM

GI50 in this record for `CC(=O)Oc1ccccc1C(=O)Nc1ncc([N+](=O)[O-])s1` : 1500 nM

Measured values drawn from PubChem BioAssay (NCI) for this set.
